Attribution: PubChem BioAssay (NCI)

system: 786-0 renal; assay: NCI-60 one-dose screen, 48 h (100 = growth as untreated, 0 = no growth, -100 = all killed); conditions: 10 µM unless noted
About 83,000 compounds went through this panel and 20% of them were active in at least one assay; those are over-represented in the sample as a whole.
Label label 1 for high-side growth (at or above 60%) and label 0 for low-side growth (below it).

Worked examples, 2 compounds total:
INSERT INTO assay_data (compound, classification) VALUES
  ('NS(=O)(=O)c1cnccc1-n1ccc(=O)c(S(N)(=O)=O)c1', 'label 1'),
  ('CCCCS(=O)(=O)Oc1ccc(-c2nc(C)c(C(=O)OCC)s2)cc1C=O', 'label 1');

[ask] Dear colleague, could you confirm whether "COc1cccc(-c2cnco2)c1OCc1c(C)c(COc2c(OC)cccc2-c2cnco2)c(C)c(COc2c(OC)cccc2-c2cnco2)c1C" has growth at or above 60%?
[reply] label 0

[ask] Dear colleague, could you confirm whether "COc1cc(-c2ccc(N=Nc3c(O)c(C(=O)Nc4ccccc4OC)cc4ccccc34)c(OC)c2)ccc1N=Nc1c(O)c(C(=O)Nc2ccccc2OC)cc2ccccc12" has growth at or above 60%?
[reply] label 1

[ask] Dear colleague, could you confirm whether CC(C)CCC[C@@H](C)[C@H]1CCC2C3=CCC4C(=O)C=CC(=O)C4C3CC[C@@]21C (stereo not given in full) has growth at or above 60%?
[reply] label 0

[ask] Dear colleague, could you confirm whether "O=C(NC(=S)Nc1ccc(-c2nc3ccccc3[nH]2)cc1)c1ccc2ccccc2c1" has growth at or above 60%?
[reply] label 0

[ask] Dear colleague, could you confirm whether "COc1ccc(O)c(-c2cc(-c3ccccc3)c(C#N)c(=O)[nH]2)c1" has growth at or above 60%?
[reply] label 1

[ask] Dear colleague, could you confirm whether "CN(C)c1ccc(/C=C2\C=C(c3ccccc3)N(CCc3ccccc3)C2=O)cc1" has growth at or above 60%?
[reply] label 0

[ask] Dear colleague, could you confirm whether "CC(C)OCCCNCC(=O)Nc1ccc(S(=O)(=O)c2ccc(NC(=O)CNCCCOC(C)C)cc2)cc1" has growth at or above 60%?
[reply] label 1

[ask] Dear colleague, could you confirm whether "CCCCCCCCn1cc(C2=C(c3coc4ccc(OC)cc34)C(=O)NC2=O)c2ccccc21" has growth at or above 60%?
[reply] label 1

[ask] Dear colleague, could you confirm whether "COC(=O)CNC(=O)C(=O)c1c(O)c(O)c(C(C)C)c2cc(C)c(-c3c(C)cc4c(C(C)C)c(O)c(O)c(C(=O)C(=O)NCC(=O)OC)c4c3O)c(O)c12" has growth at or above 60%?
[reply] label 0

[ask] Dear colleague, could you confirm whether Nc1nc(I)c2ncn(C3OC(CO)C(O)C3O)c2n1 (stereo not given) has growth at or above 60%?
[reply] label 1

[ask] Dear colleague, could you confirm whether "O=C(CCc1nc(-c2cccc(Cl)c2)no1)Nc1ccccn1" has growth at or above 60%?
[reply] label 1

[ask] Dear colleague, could you confirm whether "COc1ccc(-c2cc(-c3cc(OC)ccc3O)[nH]c(=O)c2C#N)cc1" has growth at or above 60%?
[reply] label 0

[ask] Dear colleague, could you confirm whether "C=C1C(=O)O[C@H]2[C@H]1CC/C(COC(=O)NCc1ccc(Cn3c(=O)sn(CCCCl)c3=O)cc1)=C\CC[C@@]1(C)O[C@@H]21" has growth at or above 60%?
[reply] label 0

[ask] Dear colleague, could you confirm whether O=C(NCCOCCOCCNc1cccc2c1C(=O)N(C1CCCNC1=O)C2=O)c1cc2c(o1)C(=O)c1ccccc1C2=O (stereo not given) has growth at or above 60%?
[reply] label 0

[ask] Dear colleague, could you confirm whether C=C(CNCCc1ccc(O)cc1)[C@@H]1CC[C@]2(COC3CCCCO3)CC[C@]3(C)[C@H](CC[C@@H]4[C@@]5(C)CCC(N)C(C)(C)[C@@H]5CC[C@]43C)[C@@H]12 (stereo not given in full) has growth at or above 60%?
[reply] label 0

[ask] Dear colleague, could you confirm whether "O=C1NN(C(=O)c2ccc(O)cc2)C(c2ccccc2)=N/C1=C\c1cn(-c2ccccc2)nc1-c1ccccc1" has growth at or above 60%?
[reply] label 1

###

test system: RXF 393 renal; assay: NCI-60 one-dose screen, 48 h (100 = growth as untreated, 0 = no growth, -100 = all killed); settings: 10 µM unless noted
This is part of a sample that, as a whole, favours compounds with a hit. Of some 83,000 tested, about 20% had one in any assay.
Listing of entries alongside the reported growth.
Kindly provide the numeric value in % only, without the unit symbol.

Some compounds with known growth results, for comparison:
INSERT INTO measurements (compound, assayed_target, unit_tag, result_number) VALUES
  ('CCc1c(C(=O)N[C@@H]2c3cc(Cl)ccc3CC[C@@H]2O)[nH]c(C)c1C(C)=O', 'RXF 393 renal', '%', 92.3),
  ('C=C(C)[C@@H]1CC[C@]2(CO)CC[C@]3(C)[C@H](CC[C@@H]4[C@@]5(C)C=C(C#N)C(=O)C(C)(C)[C@@H]5CC[C@]43C)[C@@H]12', 'RXF 393 renal', '%', -61.2),
  ('CCC(=O)OC1=C(C)SC2=NC(c3ccc(Cl)c(Cl)c3)=CC(c3cc(OC)c(OC)c(OC)c3)N21 (stereo unspecified)', 'RXF 393 renal', '%', 91);

compound "C[C@H]1[C@H](C)CC[C@]2(C(=O)N3CCN(C)CC3)CC[C@]3(C)C(=CC[C@@H]4[C@@]5(C)C/C(=C/c6cccnc6)C(=O)C(C)(C)[C@@H]5CC[C@]43C)[C@H]12" , growth observed: -94.4

###

Listing of entries alongside the reported growth.
system: NCI/ADR-RES ovarian; experiment: NCI-60 one-dose screen, 48 h (100 = growth as untreated, 0 = no growth, -100 = all killed); conditions: 10 µM unless noted
This is part of a sample that, as a whole, favours compounds with a hit. Of some 83,000 tested, about 20% had one in any assay. Calls of active or inactive are those of the source. Rule for the calls: active = growth percent below 10; inactive = the rest.

Some compounds with known growth results, for comparison:
INSERT INTO results (compound, result) VALUES
  ('COc1cc(C(=O)Nc2cc(O)c(CC=C(C)C)c(O)c2)cc2c1O[C@]1(C)CC[C@@H](O)C(C)(C)[C@H]1C2', '81.3% (inactive)'),
  ('CCCCNC(=O)c1cc(NCc2cc(O)ccc2O)ccc1O', '95% (inactive)');

growth for NCI/ADR-RES ovarian with input "N#Cc1c(-c2ccc(C(F)(F)F)cc2)cc(N2CC(O)C2)n2c1nc1ccccc12" equals 38.3% (inactive)

growth for NCI/ADR-RES ovarian with input "O=C1C=CC(=Nc2cc(Br)c(O)c(Br)c2)C=C1" equals 63.9% (inactive)

growth for NCI/ADR-RES ovarian with input "CCCCCOC(=O)c1cccc(NC(=O)CN(CC)CC)c1" equals 105% (inactive)

growth for NCI/ADR-RES ovarian with input "CS(=O)(=O)c1ccc(N/N=C/c2c(-c3ccc(S(C)(=O)=O)cc3)[nH]c3ccc(F)cc23)cc1" equals 91.5% (inactive)

growth for NCI/ADR-RES ovarian with input "Cc1nc(Nc2ccc(NC(=S)Nc3ccccc3)cc2)c2ccccc2n1" equals 107% (inactive)

###

system: MALME-3M melanoma; assay: NCI-60 one-dose screen, 48 h; details: 10 µM unless noted
The panel holds about 83,000 compounds, 20% with a hit somewhere; the sample as a whole holds those more often. Active and inactive are the calls of the source. How the source made its calls: active means growth percent below 10; inactive means the rest.
Please state which outcome applies, choosing from yes = active, no = inactive

[ask] Assay outcome for "N#Cc1c(Oc2ccc([N+](=O)[O-])cc2)nc2sc3cc(Cl)ccc3n2c1=N" : what was it?
[reply] yes

###

system: RPMI-8226 leukemia; experiment: NCI-60 one-dose screen, 48 h (100 = growth as untreated, 0 = no growth, -100 = all killed); details: 10 µM unless noted
About 83,000 compounds went through this panel and 20% of them were active in at least one assay; those are over-represented in the sample as a whole.
MEASURE NAME: growth (%)
Kindly provide the numeric value in % only, without the unit symbol.

Some compounds with known growth results, for comparison:
INSERT INTO assay_data (compound, measure_name, unit_tag, result_number) VALUES
  ('Cn1nnnc1-c1ccc(N)cc1', 'growth', '%', 103),
  ('COc1ccc(NC(=O)C(=O)c2c[nH]c3ccc(F)cc23)cc1', 'growth', '%', 92.7),
  ('O=c1[nH]c(NCc2nnnn2-c2ccc(Br)cc2)nc2sc3c(c12)CCCC3', 'growth', '%', 87.3),
  ('C=C1C(=O)O[C@H]2[C@H]1CC/C(COC(=O)/C=C/C(=O)NCc1ccc(Cn3c(=O)sn(-c4ccccc4)c3=O)cc1)=C\CC[C@@]1(C)O[C@@H]21', 'growth', '%', -32.6),
  ('Cc1ccc(S(=O)(=O)NN/C(N)=N\S(=O)(=O)c2cc(C)c(Cl)cc2SCc2ccccc2)cc1', 'growth', '%', 34.1);

compound "CCN(CC)CCOC(=O)Nc1ccccc1Cl" , growth observed: 88.8

compound "COc1cc2oc(-c3cccc(C(=O)Nc4ccc(C)cc4)c3)cc(=O)c2c(OC)c1OC" , growth observed: -7.08

compound "Cc1nc(Nc2ccc(NC(=S)Nc3ccccc3)cc2)nc2nc(Nc3ccc(S(=O)(=O)O)cc3)[nH]c(=O)c12" , growth observed: 79.2

compound "CN(C)c1cnccn1" , growth observed: 65.2

compound "COc1cc2c(cc1OC)-c1ccc3cc4c(cc3c1N(CCN(C)C)C2)OCO4" , growth observed: -41.1

compound "CC(C)n1nc(C#Cc2cccc3cc(-c4cccc(C(F)(F)F)c4)ncc23)c2c(N)ncnc21" , growth observed: 57.1
